Molecular target: T1, recombinant human IL-23 (p19/p40) (human, UniProt Q9NPF7 20-189; P29460 23-328)
T1 construct: Bought heterodimer (R&D Systems or eBioscience); biotinylated in the alpha-screens; also called hIL-23
T1 sequence (looked up) 1: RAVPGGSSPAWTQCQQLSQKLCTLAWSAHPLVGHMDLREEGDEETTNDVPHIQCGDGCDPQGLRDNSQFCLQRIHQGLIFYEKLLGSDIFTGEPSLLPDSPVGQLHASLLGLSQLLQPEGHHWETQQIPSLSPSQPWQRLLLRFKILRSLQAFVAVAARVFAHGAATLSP
T1 sequence (looked up) 2: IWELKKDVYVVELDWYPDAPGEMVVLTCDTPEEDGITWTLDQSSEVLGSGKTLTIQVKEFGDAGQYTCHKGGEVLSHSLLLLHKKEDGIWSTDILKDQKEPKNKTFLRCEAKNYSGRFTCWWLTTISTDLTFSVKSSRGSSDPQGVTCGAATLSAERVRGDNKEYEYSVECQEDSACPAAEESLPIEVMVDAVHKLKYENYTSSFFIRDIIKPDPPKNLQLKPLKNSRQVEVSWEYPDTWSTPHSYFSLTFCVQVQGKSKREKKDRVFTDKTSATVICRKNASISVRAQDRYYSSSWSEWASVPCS
Assay: SPR Biacore, hIL-23 on chip
MEASURED_PARAMETER: koff (s⁻¹)
The figure you give is taken to be in s⁻¹; do not add the unit.

Q. State, in one line, measured koff of P23IL 3F11 (VHH, p40+ Nanobody; c-myc, His6-tagged) VHH: EVQLVESGGGLVQAGGSLRLSCAASGSIFSINAMGWFRQAPGKERQFVAAINWSTGSTYYSDSVKGRFTISRDNAKNTVYLQMNSLKPEDTAVYFCASGYLFPSSRGSQYDYWGQGTQVTVSS
A. 0.00146

Q. State, in one line, measured koff of P23IL 84A12 (VHH, p40+ Nanobody; c-myc, His6-tagged) VHH: EVQLVESGGGVVQAGESLRLSCAASGRSFSDYEMGWFRQAPGTEREFVASINRRGSSTFYADSVKGRFTISRDNTKNTVYLQMSSLKPEDTAVYLCAAGWLFPSSRSRDYDYWGQGTQVTVSS
A. 0.0016
